- test: Cmax in NMRI mouse plasma at 10 mg/kg, po measured up to 24 hrs
- Format: ADME, organism-based
- Parameters: dose 10 mg/kg, time < 24 hrs, route po
readout: Cmax (ng/mL)
Numbers only; they are read as ng/mL.

Q. What value of measured Cmax is listed for `FC(F)(F)c1ccc(-c2ccc3nc(Cl)nc(N[C@@H]4C[C@H]5CC[C@@H]4C5)c3c2)cc1` ?
A. 586

====

- test: Cmax in NMRI mouse brain at 10 mg/kg, po measured up to 24 hrs
- Type: ADME, organism-based
- Parameters: time < 24 hrs, dose 10 mg/kg, route po
readout: Cmax (ng/mL)
Numbers only; they are read as ng/mL.

Q. What value of measured Cmax is listed for `FC(F)(F)c1ccc(-c2ccc3nc(Cl)nc(N[C@@H]4C[C@H]5CC[C@@H]4C5)c3c2)cc1` ?
A. 100

====

- test: Metabolic stability in rat assessed as parent compound remaining
- Type: ADME
Recorded Stability by entry
Numbers only; they are read as %.

                                test_smiles    readout  units_label  value_reported
0  Cc1nc(N[C@@H]2C[C@H]3CC[C@@H]2C3)c2cc(-c3cc(Cl)cc(Cl)c3)ccc2n1  Stability            %              37
1  Fc1ccc(-c2ccc3nc(Cl)nc(N[C@@H]4C[C@H]5CC[C@@H]4C5)c3c2)cc1  Stability            %              36
2  Clc1ccc(-c2ccc3nc(Cl)nc(N[C@@H]4C[C@H]5CC[C@@H]4C5)c3c2)cc1  Stability            %              85
3  Cc1nc(N[C@@H]2C[C@H]3CC[C@@H]2C3)c2cc(-c3ccccc3Cl)ccc2n1  Stability            %              31
4  Cc1nc(N[C@@H]2C[C@H]3CC[C@@H]2C3)c2cc(-c3ccc(Cl)cc3)ccc2n1  Stability            %              49

Q. What value of measured Stability is listed for `Cc1ncc(-c2ccc(C(F)(F)F)cc2)c(N[C@@H]2C[C@H]3CC[C@@H]2C3)n1` ?
A. 24

Q. What value of measured Stability is listed for `Cc1nc(N[C@@H]2C[C@H]3CC[C@@H]2C3)c2cc(-c3ccc(Cl)c(Cl)c3)ccc2n1` ?
A. 63

Q. What value of measured Stability is listed for `Clc1cc(Cl)cc(-c2ccc3nc(Cl)nc(N[C@@H]4C[C@H]5CC[C@@H]4C5)c3c2)c1` ?
A. 76

Q. What value of measured Stability is listed for `Cc1nc(N[C@@H]2C[C@H]3CC[C@@H]2C3)c2cc(-c3ccc(C(F)(F)F)cc3)ccc2n1` ?
A. 77

Q. What value of measured Stability is listed for `FC(F)(F)c1cccc(-c2ccc3nc(Cl)nc(N[C@@H]4C[C@H]5CC[C@@H]4C5)c3c2)c1` ?
A. 67

====

- test: AUC (0 to 24 hrs) in NMRI mouse brain at 10 mg/kg, po measured up to 24 hrs
- Assay type: ADME, organism-based
- Parameters: time < 24 hrs, dose 10 mg/kg, route po
readout: AUC(0-t) at 24 h
Report as: number unit

Q. What value of measured AUC(0-t) at 24 h is listed for `FC(F)(F)c1ccc(-c2ccc3nc(Cl)nc(N[C@@H]4C[C@H]5CC[C@@H]4C5)c3c2)cc1` ?
A. 852 ng·h/mL

====

- test: Tmax in NMRI mouse brain at 10 mg/kg, po measured up to 24 hrs
- Type: ADME, organism-based
readout: Tmax
Report as: number unit

Q. What value of measured Tmax is listed for `FC(F)(F)c1ccc(-c2ccc3nc(Cl)nc(N[C@@H]4C[C@H]5CC[C@@H]4C5)c3c2)cc1` ?
A. 2 h

====

- test: Tmax in NMRI mouse plasma at 10 mg/kg, po measured up to 24 hrs
- Type: ADME, organism-based
readout: Tmax (h)
Numbers only; they are read as h.

Q. What value of measured Tmax is listed for `FC(F)(F)c1ccc(-c2ccc3nc(Cl)nc(N[C@@H]4C[C@H]5CC[C@@H]4C5)c3c2)cc1` ?
A. 1

====

- test: Metabolic stability in mouse assessed as parent compound remaining
- Type: ADME
Binarize Stability at 40%; below is Satisfied, at or above is Not satisfied.

Q. Decide: Stability of `Cc1nc(N[C@@H]2C[C@H]3CC[C@@H]2C3)c2cc(-c3ccc(C(F)(F)F)cc3)ccc2n1` strictly below 40%?
A. Not satisfied

Q. Decide: Stability of `Cc1nc(N[C@@H]2C[C@H]3CC[C@@H]2C3)c2cc(-c3ccccc3Cl)ccc2n1` strictly below 40%?
A. Satisfied

Q. Decide: Stability of `Clc1cc(Cl)cc(-c2ccc3nc(Cl)nc(N[C@@H]4C[C@H]5CC[C@@H]4C5)c3c2)c1` strictly below 40%?
A. Not satisfied

Q. Decide: Stability of `FC(F)(F)c1ccc(-c2ccc3nc(Cl)nc(N[C@@H]4C[C@H]5CC[C@@H]4C5)c3c2)cc1` strictly below 40%?
A. Not satisfied

Q. Decide: Stability of `Clc1nc(N[C@@H]2C[C@H]3CC[C@@H]2C3)c2cc(-c3ccc(Cl)c(Cl)c3)ccc2n1` strictly below 40%?
A. Not satisfied

Q. Decide: Stability of `Cc1ncc(-c2ccc(C(F)(F)F)cc2)c(N[C@@H]2C[C@H]3CC[C@@H]2C3)n1` strictly below 40%?
A. Not satisfied

Q. Decide: Stability of `Cc1nc(N[C@@H]2C[C@H]3CC[C@@H]2C3)c2cc(-c3ccc(Cl)c(Cl)c3)ccc2n1` strictly below 40%?
A. Not satisfied

Q. Decide: Stability of `Fc1ccc(-c2ccc3nc(Cl)nc(N[C@@H]4C[C@H]5CC[C@@H]4C5)c3c2)cc1` strictly below 40%?
A. Not satisfied

Q. Decide: Stability of `Cc1nc(N[C@@H]2C[C@H]3CC[C@@H]2C3)c2cc(-c3cccc(Cl)c3)ccc2n1` strictly below 40%?
A. Satisfied

Q. Decide: Stability of `FC(F)(F)c1cccc(-c2ccc3nc(Cl)nc(N[C@@H]4C[C@H]5CC[C@@H]4C5)c3c2)c1` strictly below 40%?
A. Not satisfied

Q. Decide: Stability of `Cc1nc(N[C@@H]2C[C@H]3CC[C@@H]2C3)c2cc(-c3cc(Cl)cc(Cl)c3)ccc2n1` strictly below 40%?
A. Not satisfied

====

- test: Half life in NMRI mouse brain at 10 mg/kg, po measured up to 24 hrs
- Assay type: ADME, organism-based
readout: half-life (h)
Numbers only; they are read as h.

Q. What value of measured half-life is listed for `FC(F)(F)c1ccc(-c2ccc3nc(Cl)nc(N[C@@H]4C[C@H]5CC[C@@H]4C5)c3c2)cc1` ?
A. 8.94

====

- test: AUC (0 to 24 hrs) in NMRI mouse plasma at 10 mg/kg, po measured up to 24 hrs
- Format: ADME, organism-based
- Set-up: time < 24 hrs, dose 10 mg/kg, route po
readout: AUC(0-t) at 24 h (ng·h/mL)
Numbers only; they are read as ng·h/mL.

Q. What value of measured AUC(0-t) at 24 h is listed for `FC(F)(F)c1ccc(-c2ccc3nc(Cl)nc(N[C@@H]4C[C@H]5CC[C@@H]4C5)c3c2)cc1` ?
A. 4660

====

- test: Metabolic stability in human assessed as parent compound remaining
- Format: ADME
readout: Stability (%)
Numbers only; they are read as %.

Use these answered entries as a reference point.
                                test_smiles    readout  units_label  value_reported
0  Cc1nc(N[C@@H]2C[C@H]3CC[C@@H]2C3)c2cc(-c3ccc(Cl)c(Cl)c3)ccc2n1  Stability            %              56
1  Cc1nc(N[C@@H]2C[C@H]3CC[C@@H]2C3)c2cc(-c3ccc(Cl)cc3)ccc2n1  Stability            %              47
2  Cc1nc(N[C@@H]2C[C@H]3CC[C@@H]2C3)c2cc(-c3cccc(Cl)c3)ccc2n1  Stability            %              50
3  Cc1nc(N[C@@H]2C[C@H]3CC[C@@H]2C3)c2cc(-c3ccc(C(F)(F)F)cc3)ccc2n1  Stability            %              66
4  FC(F)(F)c1ccc(-c2ccc3nc(Cl)nc(N[C@@H]4C[C@H]5CC[C@@H]4C5)c3c2)cc1  Stability            %              73
5  Fc1ccc(-c2ccc3nc(Cl)nc(N[C@@H]4C[C@H]5CC[C@@H]4C5)c3c2)cc1  Stability            %              47
6  Clc1ccc(-c2ccc3nc(Cl)nc(N[C@@H]4C[C@H]5CC[C@@H]4C5)c3c2)cc1  Stability            %              46

Consider now this further compound.
Q. What value of measured Stability is listed for `Cc1nc(N[C@@H]2C[C@H]3CC[C@@H]2C3)c2cc(-c3ccccc3Cl)ccc2n1` ?
A. 57
